Where do the numbers come from? From the Kinase Knowledgebase extract (Sharma et al. 2016).

Field: pKi. Provide a value for each of the compounds that follow.
subjectOfTest: CDK2 (human)
assay: Enzyme Assay
Please keep in mind that pKi is minus log10 of the molar concentration; only the number is needed.

Req: # input compound: Cc1n[nH]c2ccc(-c3cncc(OCCNS(C)(=O)=O)c3)cc12 ; wanted: its pKi
Resp: 6.50

Req: # input compound: O=c1cc(-c2ccncc2)nc(NCc2cc(F)cc(F)c2)[nH]1 ; wanted: its pKi
Resp: 6.10

Req: # input compound: CN(C)C1CCC(Nc2nc(Cl)cc(-c3c[nH]c4ncccc34)n2)CC1 (stereo unspecified) ; wanted: its pKi
Resp: 7.60

Req: # input compound: Fc1ccc2c(c1)-c1n[nH]cc1CS2 ; wanted: its pKi
Resp: 4.70

Req: # input compound: CC(C)(CO)CCCNc1cc(-c2c[nH]c3ncccc23)cc(Cl)n1 ; wanted: its pKi
Resp: 7.00

Req: # input compound: CCCCNc1cc(-c2ccncc2)cc2[nH]nc(N)c12 ; wanted: its pKi
Resp: 6.70

---

Dear all, this message contains pKi results, target or system ROCK2 (human) (UniProt O75116).
Please keep in mind that pKi is minus log10 of the molar concentration; only the number is needed.

Req: # input compound: CCOC(=O)c1c[nH]n2c(=O)cc(-c3ccncc3)nc12 ; wanted: its pKi
Resp: 5.70

Req: # input compound: Cc1cccc(CNc2cc(-c3c[nH]c4ncccc34)cc(Cl)n2)c1C ; wanted: its pKi
Resp: 7.50

Req: # input compound: c1cnc2[nH]cc(-c3ccnc(NCC4CCCCC4)n3)c2c1 ; wanted: its pKi
Resp: 8.20

Req: # input compound: c1ccc(Cn2cc(-c3ccc4[nH]nc(-c5cn(Cc6ccccc6)nn5)c4c3)nn2)cc1 ; wanted: its pKi
Resp: 6.90

Req: # input compound: O=C1Nc2ccccc2Nc2cc(-c3ccncc3Cl)ccc21 ; wanted: its pKi
Resp: 6.20

Req: # input compound: C=CCNc1cc(-c2c[nH]c3ncccc23)cc(Cl)n1 ; wanted: its pKi
Resp: 7.90

Req: # input compound: CCCCOc1cc(-c2ccncc2)cc2[nH]nc(N)c12 ; wanted: its pKi
Resp: 6.90

---

Field: pKi. Provide a value for each of the compounds that follow.
subjectOfTest: ROCK2 (human) (UniProt O75116)
Sequence (O75116 whole entry, looked up): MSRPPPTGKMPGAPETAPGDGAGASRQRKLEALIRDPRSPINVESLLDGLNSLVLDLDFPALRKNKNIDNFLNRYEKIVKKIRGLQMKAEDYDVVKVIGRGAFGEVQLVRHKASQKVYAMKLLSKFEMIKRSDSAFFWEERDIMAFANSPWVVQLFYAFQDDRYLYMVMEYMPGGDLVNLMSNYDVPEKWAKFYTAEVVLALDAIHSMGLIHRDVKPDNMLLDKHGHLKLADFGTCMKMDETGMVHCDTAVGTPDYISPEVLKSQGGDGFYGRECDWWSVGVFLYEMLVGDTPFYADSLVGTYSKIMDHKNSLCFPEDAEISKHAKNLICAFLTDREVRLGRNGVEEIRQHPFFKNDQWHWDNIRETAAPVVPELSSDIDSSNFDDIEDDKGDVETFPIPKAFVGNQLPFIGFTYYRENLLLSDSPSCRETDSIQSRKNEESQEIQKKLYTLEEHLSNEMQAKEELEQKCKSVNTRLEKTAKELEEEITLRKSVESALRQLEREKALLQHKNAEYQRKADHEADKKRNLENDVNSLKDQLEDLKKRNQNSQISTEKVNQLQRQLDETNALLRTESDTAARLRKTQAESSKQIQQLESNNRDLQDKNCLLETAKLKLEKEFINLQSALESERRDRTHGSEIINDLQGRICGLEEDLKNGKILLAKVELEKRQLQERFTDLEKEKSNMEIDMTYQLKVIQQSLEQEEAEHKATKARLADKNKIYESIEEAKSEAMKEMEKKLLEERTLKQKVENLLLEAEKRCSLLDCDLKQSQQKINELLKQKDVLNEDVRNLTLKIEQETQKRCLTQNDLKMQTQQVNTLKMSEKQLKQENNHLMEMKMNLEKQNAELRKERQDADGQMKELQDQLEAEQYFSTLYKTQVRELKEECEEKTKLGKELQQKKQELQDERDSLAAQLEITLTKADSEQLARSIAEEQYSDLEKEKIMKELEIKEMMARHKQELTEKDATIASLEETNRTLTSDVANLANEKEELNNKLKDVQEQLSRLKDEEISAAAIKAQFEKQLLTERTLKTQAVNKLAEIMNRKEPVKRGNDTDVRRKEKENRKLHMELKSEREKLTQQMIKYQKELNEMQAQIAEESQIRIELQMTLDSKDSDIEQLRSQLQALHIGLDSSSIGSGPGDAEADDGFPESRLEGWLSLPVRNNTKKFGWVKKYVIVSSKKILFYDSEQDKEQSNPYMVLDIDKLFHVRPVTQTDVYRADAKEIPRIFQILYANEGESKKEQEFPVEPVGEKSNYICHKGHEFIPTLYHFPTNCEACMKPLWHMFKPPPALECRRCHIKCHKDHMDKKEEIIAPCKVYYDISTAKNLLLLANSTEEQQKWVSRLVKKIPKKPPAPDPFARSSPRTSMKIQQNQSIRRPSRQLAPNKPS
pKi: −log10 of the molar value.

Req: # input compound: Cn1cncc1C(OCc1c(-c2ccc(OC(F)(F)F)cc2)cc(C#N)c(=O)n1C)c1ccc(C#N)cc1 (stereo not given) ; wanted: its pKi
Resp: < 5.10

Req: # input compound: O=C(NCc1ccccc1)c1c[nH]n2c(=O)cc(-c3ccncc3)nc12 ; wanted: its pKi
Resp: < 5.10

Req: # input compound: Clc1cc(NC2CCCCC2)nc(-c2c[nH]c3ncccc23)n1 ; wanted: its pKi
Resp: < 6.50

Req: # input compound: N#Cc1ccc2[nH]c(O)c(-c3ccc(CN4CCOCC4)cn3)c2c1 ; wanted: its pKi
Resp: < 5.20

Req: # input compound: CC(C)(CO)CNc1nccc(-c2c(-c3ccc(F)cc3)nc3c(CC4CC4)nccn23)n1 ; wanted: its pKi
Resp: < 5.10

Req: # input compound: O=[N+]([O-])c1cccc(-c2nnc3ccc(N4CCCCC4)nn23)c1 ; wanted: its pKi
Resp: < 5.10

Req: # input compound: CS(=O)(=O)N(Cc1ccc2[nH]c(=O)c3cccn3c2c1)C1CC1 ; wanted: its pKi
Resp: < 5.10

Req: # input compound: NNc1cc(N2CCOCC2)nc(OCCc2ccccn2)n1 ; wanted: its pKi
Resp: < 5.30

Req: # input compound: O=c1cc(-c2ccc(F)cc2)[nH]c2c(-c3ccc(F)cc3)cnn12 ; wanted: its pKi
Resp: < 5.10

Req: # input compound: O=C1NC(=O)C(c2c[nH]c3ccccc23)=C1c1nc(N2CCNCC2)nc2ccccc12 ; wanted: its pKi
Resp: < 5.40
